Tested on: Proteus mirabilis OM-1
Assay: Arrestment action to alkalization of the urine
Format: cell-based
Settings: 10^-3 M, normal human urine inoculated with Proteus mirabilis OM-1, 37° C., 8 hours
List of pH value, time 8 hours values.

COMPOUND: COc1cccc(C(=O)NCC(=O)NO)c1 [Compound B]
pH value, time 8 hours: 5.41
--
COMPOUND: O=C(CNC(=O)c1ccc(Cl)cc1)NO [Control compound I, reference compound]
pH value, time 8 hours: 6.64
--
COMPOUND: COc1ccc(C(=O)NCC(=O)NO)cc1 [Compound A]
pH value, time 8 hours: 5.40
--
COMPOUND: O=C(CNC(=O)c1ccco1)NO [Compound R, 2-(2-furoilamino)-acetohydroxamic acid]
pH value, time 8 hours: 5.42
--
COMPOUND: CC(=O)Nc1cccc(C(=O)NCC(=O)NO)c1 [Compound M]
pH value, time 8 hours: 6.79

###

System: Proteus mirabilis OM-1
Assay: Arrestment action to the calculus formation in the urine
Type: cell-based
Conditions: OM1; 10^-3 M, human urine with Proteus mirabilis OM-1, 8 hours; read-out: Arrest ratio to calculus formation (%), 8 hours
Each item that follows carries a reported inhibition at 1000 µM.
QUANTITY KIND: inhibition at 1000 µM

MOLECULE: O=C(CNC(=O)c1ccco1)NO [Compound R, 2-(2-furoilamino)-acetohydroxamic acid]
REPORTED VALUE: 84.1%

MOLECULE: CC(=O)Nc1cccc(C(=O)NCC(=O)NO)c1 [Compound M]
REPORTED VALUE: 91.5%

MOLECULE: COc1cccc(C(=O)NCC(=O)NO)c1 [Compound B]
REPORTED VALUE: 82%

MOLECULE: COc1ccc(C(=O)NCC(=O)NO)cc1 [Compound A]
REPORTED VALUE: 96.2%

MOLECULE: O=C(CNC(=O)c1ccc(Cl)cc1)NO [Control compound I, reference compound]
REPORTED VALUE: 69.7%

###

Target: Urease collected and purified from sword beans (Canavalia gladiata) (Canavalia gladiata)
Construct: single-chain plant urease, homohexamer by analogy with jack bean urease
Sequence (A0AAN9R4W0 entry or part of it): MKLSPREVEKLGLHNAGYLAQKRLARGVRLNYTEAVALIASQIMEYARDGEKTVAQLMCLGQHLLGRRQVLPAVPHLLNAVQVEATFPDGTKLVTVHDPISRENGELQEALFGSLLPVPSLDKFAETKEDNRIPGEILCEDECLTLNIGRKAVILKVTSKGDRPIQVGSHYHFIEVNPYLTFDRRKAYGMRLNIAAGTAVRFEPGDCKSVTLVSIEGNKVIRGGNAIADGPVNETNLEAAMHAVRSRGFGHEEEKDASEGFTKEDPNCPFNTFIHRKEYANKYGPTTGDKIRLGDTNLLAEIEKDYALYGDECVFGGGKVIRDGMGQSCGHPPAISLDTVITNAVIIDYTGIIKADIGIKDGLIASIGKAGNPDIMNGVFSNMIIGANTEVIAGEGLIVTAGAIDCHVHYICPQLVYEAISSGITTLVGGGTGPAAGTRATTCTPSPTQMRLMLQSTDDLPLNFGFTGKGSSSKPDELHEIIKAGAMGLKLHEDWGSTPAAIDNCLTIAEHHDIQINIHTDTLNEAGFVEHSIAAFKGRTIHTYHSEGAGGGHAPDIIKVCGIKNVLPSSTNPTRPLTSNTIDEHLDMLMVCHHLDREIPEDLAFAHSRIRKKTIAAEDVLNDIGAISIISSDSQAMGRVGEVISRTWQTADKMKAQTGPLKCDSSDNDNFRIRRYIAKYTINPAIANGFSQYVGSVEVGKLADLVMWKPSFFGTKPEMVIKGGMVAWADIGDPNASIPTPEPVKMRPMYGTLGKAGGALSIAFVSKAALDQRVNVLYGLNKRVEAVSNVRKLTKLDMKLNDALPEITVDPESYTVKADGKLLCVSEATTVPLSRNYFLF
Experiment: Determination of the urease inhibitory action
Type: biochemical
Conditions: read-out: 50% inhibitory concentration (M) of urease <I50>

MOLECULE: O=C(CNC(=O)c1ccco1)NO [Compound R, 2-(2-furoilamino)-acetohydroxamic acid]
RESULT UNIT: M
IC50: 1.3e-06
--
MOLECULE: COc1ccc(C(=O)NCC(=O)NO)cc1
RESULT UNIT: M
IC50: 1.7e-06
--
MOLECULE: COc1cccc(C(=O)NCC(=O)NO)c1
RESULT UNIT: M
IC50: 1.2e-06
--
MOLECULE: CC(=O)Nc1cccc(C(=O)NCC(=O)NO)c1
RESULT UNIT: M
IC50: 2e-06
--
MOLECULE: O=C(CNC(=O)c1ccc(Cl)cc1)NO [Control compound I, reference compound]
RESULT UNIT: M
IC50: 1e-06

###

dose excreted at 24 h values by entry
Assay: Determination of the transfer rate into the urine and calculation of the index
Format: in vivo, male rats of SD strain
Conditions: rat; male SD rats, 100 mg/Kg oral, 6-24 hours, measured as urease inhibitory action in excreted urine

COMPOUND: O=C(CNC(=O)c1ccco1)NO [Compound R, 2-(2-furoilamino)-acetohydroxamic acid]
dose excreted at 24 h, %: 0.68
--
COMPOUND: COc1ccc(C(=O)NCC(=O)NO)cc1 [Compound A]
dose excreted at 24 h, %: 0.83
--
COMPOUND: CC(=O)Nc1cccc(C(=O)NCC(=O)NO)c1 [Compound M]
dose excreted at 24 h, %: 0.6
--
COMPOUND: O=C(CNC(=O)c1ccc(Cl)cc1)NO [Control compound I, reference compound]
dose excreted at 24 h, %: 0.5
--
COMPOUND: COc1cccc(C(=O)NCC(=O)NO)c1 [Compound B]
dose excreted at 24 h, %: 1.5
